Origin of values: ChEMBL document CHEMBL1158858

# System: A549
# test_protocol: Cytotoxicity against human A549 cells after 7 days by MTT assay
# Format: functional
# condition_label: Homo sapiens, A549, 168 h; read-out: ED50 (the source's name)
measured_quantity: EC50 (µg/mL)
Entry rule: numbers only, all in µg/mL.

compound	measurement_unit	EC50
COc1cccc2c1C(=O)c1c(O)c3c(c(O)c1C2=O)C[C@@](O)(C(=O)CO)C[C@@H]3O[C@H]1C[C@H](N)[C@H](O)[C@H](C)O1 [DOXORUBICIN]	µg/mL	0.00393

stdin: GET /values?readout=EC50&item= CCCCCCCCCCCC[C@@H](O)[C@H]1CC[C@H]([C@H]2CC[C@@H]([C@@H]3CC[C@@H](CCCCC[C@@H]4CC(CC(C)=O)C(=O)O4)O3)OCO2)O1 (mixture of isomers)
stdout: 0.252

stdin: And what about the compound CCCCCCCCCCCC[C@@H](O)[C@H]1CC[C@H]([C@H](O)CC[C@H](O)[C@@H]2CC[C@@H](CCCCCCCC3=C[C@H](C)OC3=O)O2)O1 ?
stdout: 0.131

stdin: Again, but for CCCCCCCCCCCC[C@@H](O)[C@H]1CC[C@H]([C@H](O)CC[C@H](O)[C@@H]2CC[C@@H](CCCCC[C@@H]3CC(CC(C)=O)C(=O)O3)O2)O1 (stereo not given in full)
stdout: 0.214

stdin: Proceed to CCCCCCCCCCCC[C@@H](O)[C@H]1CC[C@H]([C@H]2CC[C@@H]([C@@H]3CC[C@@H](CCCCCCCC4=C[C@H](C)OC4=O)O3)OCO2)O1
stdout: 0.0382
